Entry source: patent US20180148477A1

biological target: mouse α4β7 integrin on TK1 cells (mouse) (UniProt Q00651); assay: TK1 adhesion to MAdCAM-1
Sequence (Q00651 41-1039, chain 1 of 2): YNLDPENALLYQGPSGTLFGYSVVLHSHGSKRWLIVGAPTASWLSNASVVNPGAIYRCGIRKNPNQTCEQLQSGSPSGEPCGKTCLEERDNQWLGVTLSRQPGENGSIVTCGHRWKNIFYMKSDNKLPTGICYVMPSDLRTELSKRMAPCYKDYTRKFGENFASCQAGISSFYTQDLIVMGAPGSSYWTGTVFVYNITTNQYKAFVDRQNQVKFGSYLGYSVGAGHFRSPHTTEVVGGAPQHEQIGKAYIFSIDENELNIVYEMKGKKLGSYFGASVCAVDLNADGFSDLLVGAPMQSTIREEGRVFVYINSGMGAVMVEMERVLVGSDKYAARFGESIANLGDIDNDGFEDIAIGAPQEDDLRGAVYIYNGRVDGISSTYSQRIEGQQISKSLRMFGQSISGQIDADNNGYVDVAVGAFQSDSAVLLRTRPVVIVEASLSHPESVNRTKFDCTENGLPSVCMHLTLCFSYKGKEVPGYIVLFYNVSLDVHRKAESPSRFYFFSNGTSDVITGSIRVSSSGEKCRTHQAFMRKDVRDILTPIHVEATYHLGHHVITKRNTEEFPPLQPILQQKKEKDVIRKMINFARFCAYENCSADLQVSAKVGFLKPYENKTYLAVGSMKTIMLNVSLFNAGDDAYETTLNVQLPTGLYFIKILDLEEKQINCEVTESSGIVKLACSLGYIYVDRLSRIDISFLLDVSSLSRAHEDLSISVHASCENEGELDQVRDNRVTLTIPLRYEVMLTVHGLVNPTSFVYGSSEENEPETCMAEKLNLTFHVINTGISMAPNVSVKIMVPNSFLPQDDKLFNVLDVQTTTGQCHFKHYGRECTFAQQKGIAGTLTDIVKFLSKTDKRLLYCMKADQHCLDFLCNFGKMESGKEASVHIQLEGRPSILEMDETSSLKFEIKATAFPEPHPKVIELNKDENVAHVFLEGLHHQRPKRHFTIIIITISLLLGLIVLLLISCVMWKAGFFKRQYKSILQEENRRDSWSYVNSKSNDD
Sequence (P26011 20-806, chain 2 of 2, further chain): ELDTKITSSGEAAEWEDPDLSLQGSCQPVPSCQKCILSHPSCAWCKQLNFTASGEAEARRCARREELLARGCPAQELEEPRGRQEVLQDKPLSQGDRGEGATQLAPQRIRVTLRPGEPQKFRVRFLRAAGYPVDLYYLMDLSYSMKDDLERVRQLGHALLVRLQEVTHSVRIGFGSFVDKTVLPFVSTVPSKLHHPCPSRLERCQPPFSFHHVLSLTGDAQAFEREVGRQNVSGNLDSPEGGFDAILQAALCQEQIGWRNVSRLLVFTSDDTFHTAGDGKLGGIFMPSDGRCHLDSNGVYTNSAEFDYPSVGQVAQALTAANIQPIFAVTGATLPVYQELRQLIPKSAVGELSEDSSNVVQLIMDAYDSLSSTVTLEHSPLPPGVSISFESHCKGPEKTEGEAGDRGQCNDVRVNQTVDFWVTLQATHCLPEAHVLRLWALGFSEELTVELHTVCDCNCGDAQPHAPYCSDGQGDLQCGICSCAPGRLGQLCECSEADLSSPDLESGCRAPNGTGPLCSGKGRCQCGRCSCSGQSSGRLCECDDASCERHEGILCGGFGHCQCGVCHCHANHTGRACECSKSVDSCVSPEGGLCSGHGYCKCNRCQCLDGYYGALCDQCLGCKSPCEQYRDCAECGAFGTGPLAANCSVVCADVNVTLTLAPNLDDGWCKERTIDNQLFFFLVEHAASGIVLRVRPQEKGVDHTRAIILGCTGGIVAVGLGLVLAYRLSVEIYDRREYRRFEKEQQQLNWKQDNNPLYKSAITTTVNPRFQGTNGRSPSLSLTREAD
Bridge positions count the residues as written; N and C are the ends. Square brackets hold non-standard residues; d marks the D form. Bip = N[C@@H](Cc1ccc(-c2ccccc2)cc1)C(=O)O; 1Nal = N[C@@H](Cc1cccc2ccccc12)C(=O)O; 2Nal = N[C@@H](Cc1ccc2ccccc2c1)C(=O)O; NMeR = CN[C@@H](CCCNC(=N)N)C(=O)O; Tic = O=C(O)[C@@H]1Cc2ccccc2CN1; β3hE = N[C@@H](CCC(=O)O)CC(=O)O; NMeK = CN[C@@H](CCCCN)C(=O)O; Pen = CC(C)(S)[C@H](N)C(=O)O; dNMeK = CN[C@H](CCCCN)C(=O)O
parameter_measured: IC50

Some solved cases for reference:
Problem: Please report the recorded IC50 for Ac-[Pen][NMeR]SDTL[Pen][2Nal]E[dK]-NH2 (disulfide 1-7; also: dimer via DIG, attachment site not given here) [Peptide 212] .
Solution: 2.5 nM

Problem: State the recorded IC50 for this entry: Ac-[Pen][NMeR]SDTL[Pen][2Nal]E[dK]-NH2 (disulfide 1-7; SMILES CC(=O)N[C@@H]1C(=O)N(C)[C@@H](CCCNC(=N)N)C(=O)N[C@@H](CO)C(=O)N[C@@H](CC(=O)O)C(=O)N[C@@H]([C@@H](C)O)C(=O)N[C@@H](CC(C)C)C(=O)N[C@H](C(=O)N[C@@H](Cc2ccc3ccccc3c2)C(=O)N[C@@H](CCC(=O)O)C(=O)N[C@H](CCCCN)C(N)=O)C(C)(C)SSC1(C)C) [Peptide 210]
Solution: 60 nM

Problem: Consider the binder Ac-[Pen][NMeR]SDTL[Pen][2Nal][β3hE]-NH2 (disulfide 1-7 (inferred)) [SEQ ID NO: 155] and give its measured IC50.
Solution: > 25 nM

Problem: So what does the record say about IC50 for Ac-[Pen][NMeR]SDTL[Pen][1Nal]E[dNMeK]-NH2 (disulfide 1-7; also: dimer via DIG) [SEQ ID NO: 44] ?
Solution: < 10 nM

Problem: Using the record for Ac-[Pen][NMeR]SDTL[Pen][Bip][β3hE][NMeK]-NH2 (disulfide 1-7 (inferred); also: dimer via DIG linker) [SEQ ID NO: 150] , report its IC50.
Solution: < 10 nM

Let us move to another entry and its IC50.
Problem: Fill blank: measured IC50 of the binder Ac-[Pen][NMeR]SDTL[Pen][Tic][β3hE]-NH2 (disulfide 1-7 (inferred)) [SEQ ID NO: 154] is ____.
Solution: > 1000 nM
